Origin of measurements: patent US6063778A

Experiment: Acute toxicity study
Type: in vivo
Details: mouse, in vivo, iv, i.v, male ICR mouse, 4 weeks; mortality at seven days; read-out: LD50 i.v
Recorded LD50 at 168 h for the following compounds

Record excerpt, results attached:
compound=CO/N=C(\C(=O)N[C@@H]1C(=O)N2C(C(=O)[O-])=C(/C=C/C[N+](C)(C)Cc3nc[nH]c3C)CS[C@H]12)c1csc(N)n1 value_type="LD50 at 168 h" result="> 2000 mg/kg"
compound="CC[N+](C)(CC=CC(N)=O)C/C=C/C1=C(C(=O)[O-])N2C(=O)[C@@H](NC(=O)/C(=N\\OC)c3nsc(N)n3)[C@H]2SC1 (stereo partly shown)" value_type="LD50 at 168 h" result="> 2000 mg/kg"
compound=CO/N=C(\C(=O)N[C@@H]1C(=O)N2C(C(=O)[O-])=C(/C=C/C[N+](C)(C)Cc3scnc3C)CS[C@H]12)c1csc(N)n1 value_type="LD50 at 168 h" result="> 3000 mg/kg"

Read the next record carefully.
Incoming: What LD50 at 168 h value was documented for this compound, CC[N+](C)(CC=CC(N)=O)C/C=C/C1=C(C(=O)[O-])N2C(=O)[C@@H](NC(=O)/C(=N\OC)c3csc(N)n3)[C@H]2SC1 (stereo partly shown) ?
Outgoing: > 3000 mg/kg
